target: P. falciparum apicoplast DNA polymerase (Pf-apPOL) (Plasmodium falciparum)
assay name: Fluorescence-based high-throughput DNA polymerase assay (molecular beacon), primary screen and dose-response
Assay type: biochemical
condition info: first dose-response; 180'; concentration 40
measure name: % inhibition apPOL 180' (%)

> print(dat)
                                   molecule  unit  val
1  Cn1nc(C(=O)N2CCc3c(nc4cc(-c5ccccc5)[nH]n4c3=O)C2)c2ccccc21 [Molecule 18]     %   34
2  COc1ccc(C2CC(c3ccc(Cl)cc3Cl)Nc3nc(N)nn32)cc1OC (stereo not shown) [Molecule 43]     %   52
3  COc1ccccc1CC(=O)N1CCc2c(nc3cc(-c4ccccc4Cl)[nH]n3c2=O)C1 [Molecule 49]     %   52
4  Cn1nc(-c2nnc(-c3ccccc3F)o2)c2c1CCN(C(=O)c1ccccc1Cl)C2 [Molecule 34]     %   58

###

target: P. falciparum apicoplast DNA polymerase (Pf-apPOL) (Plasmodium falciparum, UniProt Q8ILY1)
Sequence (Q8ILY1 entry or part of it): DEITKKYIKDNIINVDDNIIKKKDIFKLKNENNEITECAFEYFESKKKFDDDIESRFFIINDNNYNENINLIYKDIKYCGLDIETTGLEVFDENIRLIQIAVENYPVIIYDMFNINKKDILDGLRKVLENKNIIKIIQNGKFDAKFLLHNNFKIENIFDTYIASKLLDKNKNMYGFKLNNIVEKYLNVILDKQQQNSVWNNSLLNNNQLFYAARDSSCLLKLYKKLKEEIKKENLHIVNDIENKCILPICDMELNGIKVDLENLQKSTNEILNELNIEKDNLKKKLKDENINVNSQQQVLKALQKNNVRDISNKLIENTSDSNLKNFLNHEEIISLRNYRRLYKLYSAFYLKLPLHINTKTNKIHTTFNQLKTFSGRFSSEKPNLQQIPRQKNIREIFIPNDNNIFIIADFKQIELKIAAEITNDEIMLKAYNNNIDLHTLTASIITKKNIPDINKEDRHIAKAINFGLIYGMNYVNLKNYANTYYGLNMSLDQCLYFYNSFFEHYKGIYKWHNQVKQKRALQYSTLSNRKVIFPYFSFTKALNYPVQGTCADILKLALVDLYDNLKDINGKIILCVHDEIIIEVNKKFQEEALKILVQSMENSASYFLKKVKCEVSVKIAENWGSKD
assay name: Fluorescence-based high-throughput DNA polymerase assay (molecular beacon), primary screen and dose-response
Format: biochemical
condition info: DRC-1; concentration 20; 90'
Description: The HT assay employs a molecular beacon, a stem-loop DNA template with a Cy3 dye and the Black Hole Quencher on the 3′ and 5′ ends of the DNA, respectively. Pf-apPOL concentration is based on a calculated absorptivity of ε280 = 56750 M^−1 cm^−1. […] To identify apPOL inhibitors we utilised our previously developed high-throughput DNA polymerase assay. […] The assay accurately recapitulates the kinetic behaviour of apPOL, as measured through more conventional low-throughput gel-based assays. […]
Please mark 1 if the recorded % inhibition Apol 90' is equal to or greater than 60%, and 0 if it falls below.

> print(dat)
                                   compound  label
1   Cc1ccnc(NS(=O)(=O)c2ccc(-n3cccc3)cc2)n1      0
2    CCCN1COc2ccc3c(=O)c(-c4ccccc4)coc3c2C1      0
3          Nc1ncnc(NC2CCCCC2)c1[N+](=O)[O-]      0
4  CCc1ccccc1NC(=O)c1ccc(-c2ncccc2NC(C)=O)cc1      0
5  O=C(O)c1cc([N+](=O)[O-])c(N2CCN(c3cccc(C(F)(F)F)c3)CC2)c([N+](=O)[O-])c1      0
6  O=C(Cn1ccc2c(=O)[nH]ccc21)Nc1ccccc1Cl [Molecule 19, O=C(Cn1ccc2c1cc[nH]c2=O)Nc1ccccc1Cl]      1
7             Oc1cccnc1/N=C/c1cc(I)cc(I)c1O      1
8  O=C(Cc1cccs1)N1CCN(c2nc(CN3CCOCC3)cs2)CC1      1
9  COc1cc(/C=C2\C(=O)N(c3ccc(C(=O)O)cc3)N=C2C(F)(F)F)ccc1OCC(C)C      1

###

target: P. falciparum apicoplast DNA polymerase (Pf-apPOL) (Plasmodium falciparum, UniProt Q8ILY1)
assay name: Fluorescence-based high-throughput DNA polymerase assay (molecular beacon), primary screen and dose-response
Assay type: biochemical
condition info: DRC-2; read at 5'; concentration 20
measure name: % inhibition Apo pol 5' 20

> print(dat)
                                   molecule                measure.name  val
1  O=C1CSC2=NC3=C(CCc4ccccc43)C(c3cccs3)N12 (stereo not shown)  % inhibition Apo pol 5' 20  33%
2  O=C(CCc1csc(NC(=O)Nc2ccccc2)n1)Nc1nc2ccccc2s1  % inhibition Apo pol 5' 20  37%
3  Cc1cc2[nH]c(C(=O)Nc3ccc(F)cc3)c(CN3CCOCC3)c2s1  % inhibition Apo pol 5' 20  33%
4  CC(=O)OCC1=C(C(=O)[O-])N2C(=O)[C@@H](NC(=O)Cc3cccs3)[C@H]2SC1.[Na+]  % inhibition Apo pol 5' 20  36%

###

target: bacteriophage T4 DNA polymerase (Enterobacteria phage T4, UniProt P04415)
Construct: made in house
Sequence (P04415 whole entry): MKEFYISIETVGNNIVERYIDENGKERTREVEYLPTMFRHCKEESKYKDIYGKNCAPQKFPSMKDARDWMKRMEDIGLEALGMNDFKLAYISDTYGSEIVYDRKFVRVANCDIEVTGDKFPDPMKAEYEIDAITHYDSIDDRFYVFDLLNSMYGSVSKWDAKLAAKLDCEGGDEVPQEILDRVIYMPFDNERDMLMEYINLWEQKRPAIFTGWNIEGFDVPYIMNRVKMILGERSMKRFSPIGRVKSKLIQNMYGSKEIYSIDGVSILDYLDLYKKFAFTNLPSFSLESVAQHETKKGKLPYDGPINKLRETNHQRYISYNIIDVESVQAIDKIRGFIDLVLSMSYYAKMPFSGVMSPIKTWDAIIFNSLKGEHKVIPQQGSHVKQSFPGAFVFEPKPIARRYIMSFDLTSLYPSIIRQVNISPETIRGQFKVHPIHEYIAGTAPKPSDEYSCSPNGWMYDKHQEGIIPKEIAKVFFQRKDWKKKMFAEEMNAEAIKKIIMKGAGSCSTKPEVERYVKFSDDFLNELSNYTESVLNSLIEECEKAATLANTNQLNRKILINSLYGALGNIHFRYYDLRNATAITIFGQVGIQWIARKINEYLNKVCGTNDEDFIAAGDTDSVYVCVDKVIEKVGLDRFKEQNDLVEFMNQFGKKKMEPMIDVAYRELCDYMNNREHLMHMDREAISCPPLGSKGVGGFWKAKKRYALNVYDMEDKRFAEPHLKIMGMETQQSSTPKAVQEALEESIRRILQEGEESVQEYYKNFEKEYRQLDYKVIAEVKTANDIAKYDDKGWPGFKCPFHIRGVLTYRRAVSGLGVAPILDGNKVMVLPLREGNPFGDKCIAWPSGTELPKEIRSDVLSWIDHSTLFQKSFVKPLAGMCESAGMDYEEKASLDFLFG
assay name: Counter-screen against bacteriophage T4 DNA polymerase
Type: biochemical
condition info: DRC-2; 40'; concentration 40
Please mark True if the recorded % inhibition T4 40' is equal to or greater than 10%, and False if it falls below.

> print(dat)
                           substance.smiles                                    target  label
1  CC1(C)CC(=O)C2=C(C1)OC1=C(C(=O)CC(C)(C)C1)C2c1ccc(O)cc1  bacteriophage T4 DNA polymerase (Enterobacteria phage T4, UniProt P04415)   True
2  O=c1[nH]c2ccc([N+](=O)[O-])cc2c(-c2ccccc2)c1Sc1nc2ccccc2o1  bacteriophage T4 DNA polymerase (Enterobacteria phage T4, UniProt P04415)   True
3   O=C(CSc1nnc(-c2ccco2)[nH]1)c1ccc(Cl)cc1  bacteriophage T4 DNA polymerase (Enterobacteria phage T4, UniProt P04415)  False
4  CN(C)S(=O)(=O)Oc1ccc(-c2noc(-c3ccc(Oc4cc(Cl)cc(Cl)c4)o3)n2)cc1  bacteriophage T4 DNA polymerase (Enterobacteria phage T4, UniProt P04415)   True
5   COc1ccc(-c2n[nH]cc2Oc2ccc(Cl)cc2)c(O)c1  bacteriophage T4 DNA polymerase (Enterobacteria phage T4, UniProt P04415)  False
6  N#CC(=NNc1cc(C(F)(F)F)cc(C(F)(F)F)c1)C(=O)c1ccco1  bacteriophage T4 DNA polymerase (Enterobacteria phage T4, UniProt P04415)   True
7  O=C(Nc1ccc2c(c1)Cc1cc(NC(=O)c3ccco3)ccc1-2)c1ccco1  bacteriophage T4 DNA polymerase (Enterobacteria phage T4, UniProt P04415)   True
8  O=C(NNC(=O)c1ccc(Cl)cc1)C(=O)NNC(=O)c1ccc(Cl)cc1  bacteriophage T4 DNA polymerase (Enterobacteria phage T4, UniProt P04415)  False
9  CCOC(=O)C1=C2c3cc(OC)c(OC)cc3CC(C)(C)N2C(=O)C1=O  bacteriophage T4 DNA polymerase (Enterobacteria phage T4, UniProt P04415)   True

###

target: P. falciparum apicoplast DNA polymerase (Pf-apPOL) (Plasmodium falciparum, UniProt Q8ILY1)
assay name: Fluorescence-based high-throughput DNA polymerase assay (molecular beacon), primary screen and dose-response;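 as to % inhibition ApPOL 90': test concentration in µM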
Type: biochemical
condition info: DRC-2; 90'; concentration 20
Please mark fulfilled if the recorded % inhibition ApPOL 90' is equal to or greater than 40%, and not fulfilled if it falls below.

> print(dat)
                                   compound          label
1  COCCN(CCOC)Cc1c(O)ccc2c1OC(=Cc1cc(Br)ccc1OC)C2=O [KU0198471]      fulfilled
2  O=C(Nc1ccc2c(c1)Cc1cc(NC(=O)c3ccco3)ccc1-2)c1ccco1 [KU0038977]      fulfilled
3  COc1ccc(C)cc1NC(=O)Cn1ccc2c(=O)[nH]ccc21 [Molecule 15, COc1ccc(cc1NC(=O)Cn1ccc2c1cc[nH]c2=O)C]      fulfilled
4  Cc1nc(C)c2c(n1)N(CC1CCCCC1)C(=O)CC2 [KU0218606]      fulfilled
5  COc1ccc(NC(=O)Cn2ccc3c(=O)[nH]ccc32)cc1 [Molecule 13, COc1ccc(cc1)NC(=O)Cn1ccc2c1cc[nH]c2=O]      fulfilled
6  O=C(CSc1nnc(-c2ccco2)[nH]1)c1ccc(Cl)cc1 [KU0029065]  not fulfilled
7  COc1ccc(-c2cc(=O)c3cc(O)ccc3o2)cc1OC [KU0193655]  not fulfilled
8  Cc1nn(CC(=O)NCCSCc2ccco2)c(C)c1Br [KU0267182]  not fulfilled
9  Cc1ccc(C(=O)/C=C/C=C/C=C/N(C)C)o1 [Molecule 96, CN(/C=C/C=C/C=C/C(=O)c1ccc(o1)C)C]      fulfilled

###

target: P. falciparum apicoplast DNA polymerase (Pf-apPOL) (Plasmodium falciparum)
assay name: Fluorescence-based high-throughput DNA polymerase assay (molecular beacon), primary screen and dose-response
Type: biochemical
condition info: DRC-1; 180'; conc 2.5
Reported values of % inhibition apPOL 180' for individual entries
measure name: % inhibition apPOL 180' (%)

> print(dat)
                                   compound                                    target             measure.name       val
1  O=C(O)c1ccc(COc2cc([N+](=O)[O-])cc3cccnc23)cc1  P. falciparum apicoplast DNA polymerase (Pf-apPOL) (Plasmodium falciparum)  % inhibition apPOL 180'     6.111
2  COC(=O)c1sc(-c2ccc(C(C)(C)C)cc2)cc1NC(=O)CCC(=O)O  P. falciparum apicoplast DNA polymerase (Pf-apPOL) (Plasmodium falciparum)  % inhibition apPOL 180'   10.0944
3  Cc1ccc(CNC(=O)c2cnn3c(O)cc(CSc4ccc(Cl)cc4)nc23)cc1  P. falciparum apicoplast DNA polymerase (Pf-apPOL) (Plasmodium falciparum)  % inhibition apPOL 180'     7.151
4  CC(C)CCNC(=O)c1cnn2c(O)cc(CSc3ccc(Cl)cc3)nc12  P. falciparum apicoplast DNA polymerase (Pf-apPOL) (Plasmodium falciparum)  % inhibition apPOL 180'  -11.3834
5  Cc1ccc(NC(=O)Cn2ccc3c(=O)[nH]ccc32)c(C)c1  P. falciparum apicoplast DNA polymerase (Pf-apPOL) (Plasmodium falciparum)  % inhibition apPOL 180'     -4.92
6  Cc1ccc(N2NC(=O)/C(=C\c3ccc(O)c([N+](=O)[O-])c3)C2=O)cc1Cl  P. falciparum apicoplast DNA polymerase (Pf-apPOL) (Plasmodium falciparum)  % inhibition apPOL 180'    4.9901
7   O=C1Nc2ccc(I)cc2C1=Cc1cc(Br)c(O)c(Br)c1  P. falciparum apicoplast DNA polymerase (Pf-apPOL) (Plasmodium falciparum)  % inhibition apPOL 180'    -6.922
8  Cc1cc(C)c2c(c1)C1C=CCC1C(c1ccc(C(=O)O)cc1)N2 (stereo not drawn)  P. falciparum apicoplast DNA polymerase (Pf-apPOL) (Plasmodium falciparum)  % inhibition apPOL 180'     1.778
9  Cc1cccc(C2=N/C(=C\c3ccc([N+](=O)[O-])o3)C(=O)O2)c1  P. falciparum apicoplast DNA polymerase (Pf-apPOL) (Plasmodium falciparum)  % inhibition apPOL 180'    6.3408
